- Tested on: 186277-243-T-J2-PDC multi-cell spheroid viability
- Assay summary: Anticancer human tumor 186277-243-T-J2-PDC patient-derived colon adenocarcinoma cell line growth inhibition [PI3K]
- Measurement parameters: second compound 0.0316 µM; first compound 1 µM; stronger effect = lower value
Could you mark each record met if its viability, T/C falls strictly under 70%, and not met if it equals or exceeds it?

{"Compound": "CNC(=O)c1ccc(N2C(=S)N(c3ccc(C#N)c(C(F)(F)F)c3)C(=O)C2(C)C)cc1F + Cc1nc(NC(=O)N2CCCC2C(N)=O)sc1-c1ccnc(C(C)(C)C(F)(F)F)c1", "Class": "not met"}
{"Compound": "CCN1CCN(Cc2ccc(Nc3ncc(F)c(-c4cc(F)c5nc(C)n(C(C)C)c5c4)n3)nc2)CC1 + COc1c(OCCCN2CCOCC2)ccc2c3n(c(=NC(=O)c4cnc(N)nc4)nc12)CCN3", "Class": "met"}
{"Compound": "Cn1ncc(Cl)c1-c1cc(C(=O)NC(CN)Cc2cccc(F)c2)sc1Cl (stereo unspecified) + CC(Nc1ccc2c(c1)OCCn1cc(N3C(=O)OCC3C(F)F)nc1-2)C(N)=O", "Class": "met"}
{"Compound": "CC1(C)CCC(Nc2ncc(C(F)(F)F)c(-c3c[nH]c4c(P(C)(C)=O)c(C#N)ccc34)n2)CN1 (stereo unspecified) + COc1c(OCCCN2CCOCC2)ccc2c3n(c(=NC(=O)c4cnc(N)nc4)nc12)CCN3", "Class": "met"}
{"Compound": "CC1(C)CCC(CN2CCN(c3ccc(C(=O)NS(=O)(=O)c4ccc(NCC5CCOCC5)c([N+](=O)[O-])c4)c(Oc4cnc5[nH]ccc5c4)c3)CC2)=C(c2ccc(Cl)cc2)C1 + CC(Nc1ncnc2nc[nH]c12)c1cc2cccc(Cl)c2c(=O)n1-c1ccccc1", "Class": "not met"}
{"Compound": "CCN1CCN(Cc2ccc(Nc3ncc(F)c(-c4cc(F)c5nc(C)n(C(C)C)c5c4)n3)nc2)CC1 + CC(Nc1ncnc2nc[nH]c12)c1cc2cccc(Cl)c2c(=O)n1-c1ccccc1", "Class": "not met"}
{"Compound": "C#Cc1c(F)ccc2cc(O)cc(-c3ncc4c(N5CC6CCC(C5)N6)nc(OCC56CCCN5CC(F)C6)nc4c3F)c12 (stereo unspecified) + CC(Nc1ncnc2nc[nH]c12)c1cc2cccc(Cl)c2c(=O)n1-c1ccccc1", "Class": "met"}
{"Compound": "C=CC(=O)N1CCN(c2nc(=O)n(-c3c(C)ccnc3C(C)C)c3nc(-c4c(O)cccc4F)c(F)cc23)C(C)C1 (stereo unspecified) + CC(Nc1ccc2c(c1)OCCn1cc(N3C(=O)OCC3C(F)F)nc1-2)C(N)=O", "Class": "not met"}
{"Compound": "Cn1ncc(Cl)c1-c1cc(C(=O)NC(CN)Cc2cccc(F)c2)sc1Cl (stereo unspecified) + COc1c(OCCCN2CCOCC2)ccc2c3n(c(=NC(=O)c4cnc(N)nc4)nc12)CCN3", "Class": "met"}

###

- Tested on: 186277-243-T-J2-PDC multi-cell spheroid viability
- Assay summary: Anticancer human tumor 186277-243-T-J2-PDC cell line growth inhibition [PI3K];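 also: spheroids exposed to compounds for seven days before viability reading; 100% = DMSO vehicle control viability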
- Measurement parameters: second compound 0.0316 µM; first compound 1 µM; stronger effect = lower value
Could you mark each record 1 (yes) if its viability, T/C falls strictly under 90%, and 0 (no) if it equals or exceeds it?

{"Compound": "CC(C)NCC(C(=O)N1CCN(c2ncnc3c2C(C)CC3O)CC1)c1ccc(Cl)cc1 (stereo not given) + CC(Nc1ccc2c(c1)OCCn1cc(N3C(=O)OCC3C(F)F)nc1-2)C(N)=O", "Class": "1 (yes)"}
{"Compound": "CC(Cn1ccc(-c2ccc(C#N)c(Cl)c2)n1)NC(=O)c1cc(C(C)O)[nH]n1 (stereo not given) + CC(Nc1ccc2c(c1)OCCn1cc(N3C(=O)OCC3C(F)F)nc1-2)C(N)=O", "Class": "0 (no)"}
{"Compound": "CC1(C)CCC(Nc2ncc(C(F)(F)F)c(-c3c[nH]c4c(P(C)(C)=O)c(C#N)ccc34)n2)CN1 (stereo not given) + Cc1nc(NC(=O)N2CCCC2C(N)=O)sc1-c1ccnc(C(C)(C)C(F)(F)F)c1", "Class": "1 (yes)"}
{"Compound": "C#Cc1c(F)ccc2cc(O)cc(-c3ncc4c(N5CC6CCC(C5)N6)nc(OCC56CCCN5CC(F)C6)nc4c3F)c12 (stereo not given) + CC(Nc1ccc2c(c1)OCCn1cc(N3C(=O)OCC3C(F)F)nc1-2)C(N)=O", "Class": "1 (yes)"}
{"Compound": "C#Cc1c(F)ccc2cc(O)cc(-c3ncc4c(N5CC6CCC(C5)N6)nc(OCC56CCCN5CC(F)C6)nc4c3F)c12 (stereo not given) + Cc1nc(NC(=O)N2CCCC2C(N)=O)sc1-c1ccnc(C(C)(C)C(F)(F)F)c1", "Class": "1 (yes)"}
{"Compound": "CCCS(=O)(=O)Nc1ccc(F)c(C(=O)c2c[nH]c3ncc(-c4ccc(Cl)cc4)cc23)c1F + CC(Nc1ncnc2nc[nH]c12)c1cc2cccc(Cl)c2c(=O)n1-c1ccccc1", "Class": "1 (yes)"}
{"Compound": "C[C@@H](NC(=O)c1ncnc(N)c1Cl)c1ncc(C(=O)Nc2cc(C(F)(F)F)c(Cl)cn2)s1 + CC(Nc1ccc2c(c1)OCCn1cc(N3C(=O)OCC3C(F)F)nc1-2)C(N)=O", "Class": "0 (no)"}

###

- Test system: 186277-243-T-J2-PDC multi-cell spheroid viability
- Assay summary: Anticancer human tumor 186277-243-T-J2-PDC cell line growth inhibition [PI3K];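 also: spheroids exposed to compounds for seven days before viability reading; 100% = DMSO vehicle control viability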
- Measurement parameters: second compound 0.01 µM; first compound 0.1 µM; stronger effect = lower value
- Excerpt: Combinatorial screen of targeted agents with the PI3K inhibitors inavolisib, alpelisib, duvelisib, and copanlisib in multi-cell type tumor spheroids A high-throughput screen of multi-cell type tumor spheroids was designed to identify active combinations of targeted small molecules and PI3K pathway inhibitors. […] Compounds. […] If the clinical Cmax for an agent had not been determined, the highest concentration tested was 10 microM. […]
Listing of recorded viability, T/C by entry.
Readout: viability, T/C (%)

{"Compound": "CC(Cn1ccc(-c2ccc(C#N)c(Cl)c2)n1)NC(=O)c1cc(C(C)O)[nH]n1 (stereo not drawn) + CC(Nc1ccc2c(c1)OCCn1cc(N3C(=O)OCC3C(F)F)nc1-2)C(N)=O", "Value units": "%", "Assay value": 93.2}
{"Compound": "CC(C)n1nc(-c2ccc3oc(N)nc3c2)c2c(N)ncnc21 + COc1c(OCCCN2CCOCC2)ccc2c3n(c(=NC(=O)c4cnc(N)nc4)nc12)CCN3", "Value units": "%", "Assay value": 14.7}
{"Compound": "C#Cc1c(F)ccc2cc(O)cc(-c3ncc4c(N5CC6CCC(C5)N6)nc(OCC56CCCN5CC(F)C6)nc4c3F)c12 (stereo not drawn) + CC(Nc1ccc2c(c1)OCCn1cc(N3C(=O)OCC3C(F)F)nc1-2)C(N)=O", "Value units": "%", "Assay value": 31.1}

###

- Test system: 186277-243-T-J2-PDC multi-cell spheroid viability
- Assay summary: Anticancer human tumor 186277-243-T-J2-PDC cell line growth inhibition [PI3K];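 also: spheroids exposed to compounds for seven days before viability reading; 100% = DMSO vehicle control viability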
- Measurement parameters: second compound 0.316 µM; first compound 1 µM; stronger effect = lower value
Could you mark each record 1 if its viability, T/C falls strictly under 60%, and 0 if it equals or exceeds it?

{"Compound": "CCN1CCN(Cc2ccc(Nc3ncc(F)c(-c4cc(F)c5nc(C)n(C(C)C)c5c4)n3)nc2)CC1 + Cc1nc(NC(=O)N2CCCC2C(N)=O)sc1-c1ccnc(C(C)(C)C(F)(F)F)c1", "Class": 0}
{"Compound": "Cn1nccc1Nc1nccc(-c2ccn(C(CO)c3ccc(Cl)c(F)c3)c(=O)c2)n1 (stereo unspecified) + CC(Nc1ncnc2nc[nH]c12)c1cc2cccc(Cl)c2c(=O)n1-c1ccccc1", "Class": 0}
{"Compound": "Cn1ncc(Cl)c1-c1cc(C(=O)NC(CN)Cc2cccc(F)c2)sc1Cl (stereo unspecified) + CC(Nc1ccc2c(c1)OCCn1cc(N3C(=O)OCC3C(F)F)nc1-2)C(N)=O", "Class": 1}
{"Compound": "CCN1CCN(Cc2ccc(Nc3ncc(F)c(-c4cc(F)c5nc(C)n(C(C)C)c5c4)n3)nc2)CC1 + CC(Nc1ccc2c(c1)OCCn1cc(N3C(=O)OCC3C(F)F)nc1-2)C(N)=O", "Class": 1}
{"Compound": "CC1(C)CCC(Nc2ncc(C(F)(F)F)c(-c3c[nH]c4c(P(C)(C)=O)c(C#N)ccc34)n2)CN1 (stereo unspecified) + CC(Nc1ncnc2nc[nH]c12)c1cc2cccc(Cl)c2c(=O)n1-c1ccccc1", "Class": 0}
{"Compound": "CNC(=O)c1ccc(N2C(=S)N(c3ccc(C#N)c(C(F)(F)F)c3)C(=O)C2(C)C)cc1F + COc1c(OCCCN2CCOCC2)ccc2c3n(c(=NC(=O)c4cnc(N)nc4)nc12)CCN3", "Class": 1}
{"Compound": "CCCS(=O)(=O)Nc1ccc(F)c(C(=O)c2c[nH]c3ncc(-c4ccc(Cl)cc4)cc23)c1F + CC(Nc1ncnc2nc[nH]c12)c1cc2cccc(Cl)c2c(=O)n1-c1ccccc1", "Class": 0}
{"Compound": "CC(Cn1ccc(-c2ccc(C#N)c(Cl)c2)n1)NC(=O)c1cc(C(C)O)[nH]n1 (stereo unspecified) + COc1c(OCCCN2CCOCC2)ccc2c3n(c(=NC(=O)c4cnc(N)nc4)nc12)CCN3", "Class": 1}
{"Compound": "C=CC(=O)N1CCN(c2nc(=O)n(-c3c(C)ccnc3C(C)C)c3nc(-c4c(O)cccc4F)c(F)cc23)C(C)C1 (stereo unspecified) + Cc1nc(NC(=O)N2CCCC2C(N)=O)sc1-c1ccnc(C(C)(C)C(F)(F)F)c1", "Class": 0}
{"Compound": "Cn1nccc1Nc1nccc(-c2ccn(C(CO)c3ccc(Cl)c(F)c3)c(=O)c2)n1 (stereo unspecified) + COc1c(OCCCN2CCOCC2)ccc2c3n(c(=NC(=O)c4cnc(N)nc4)nc12)CCN3", "Class": 1}
